- Assay System: ΔF508-CFTR (Homo sapiens, UniProt P13569, DEL508-508)
- Construct: host or cells: CFBE41o-, doxycycline-inducible
- Sequence (P13569 with tags, fused parts or gaps DEL508-508): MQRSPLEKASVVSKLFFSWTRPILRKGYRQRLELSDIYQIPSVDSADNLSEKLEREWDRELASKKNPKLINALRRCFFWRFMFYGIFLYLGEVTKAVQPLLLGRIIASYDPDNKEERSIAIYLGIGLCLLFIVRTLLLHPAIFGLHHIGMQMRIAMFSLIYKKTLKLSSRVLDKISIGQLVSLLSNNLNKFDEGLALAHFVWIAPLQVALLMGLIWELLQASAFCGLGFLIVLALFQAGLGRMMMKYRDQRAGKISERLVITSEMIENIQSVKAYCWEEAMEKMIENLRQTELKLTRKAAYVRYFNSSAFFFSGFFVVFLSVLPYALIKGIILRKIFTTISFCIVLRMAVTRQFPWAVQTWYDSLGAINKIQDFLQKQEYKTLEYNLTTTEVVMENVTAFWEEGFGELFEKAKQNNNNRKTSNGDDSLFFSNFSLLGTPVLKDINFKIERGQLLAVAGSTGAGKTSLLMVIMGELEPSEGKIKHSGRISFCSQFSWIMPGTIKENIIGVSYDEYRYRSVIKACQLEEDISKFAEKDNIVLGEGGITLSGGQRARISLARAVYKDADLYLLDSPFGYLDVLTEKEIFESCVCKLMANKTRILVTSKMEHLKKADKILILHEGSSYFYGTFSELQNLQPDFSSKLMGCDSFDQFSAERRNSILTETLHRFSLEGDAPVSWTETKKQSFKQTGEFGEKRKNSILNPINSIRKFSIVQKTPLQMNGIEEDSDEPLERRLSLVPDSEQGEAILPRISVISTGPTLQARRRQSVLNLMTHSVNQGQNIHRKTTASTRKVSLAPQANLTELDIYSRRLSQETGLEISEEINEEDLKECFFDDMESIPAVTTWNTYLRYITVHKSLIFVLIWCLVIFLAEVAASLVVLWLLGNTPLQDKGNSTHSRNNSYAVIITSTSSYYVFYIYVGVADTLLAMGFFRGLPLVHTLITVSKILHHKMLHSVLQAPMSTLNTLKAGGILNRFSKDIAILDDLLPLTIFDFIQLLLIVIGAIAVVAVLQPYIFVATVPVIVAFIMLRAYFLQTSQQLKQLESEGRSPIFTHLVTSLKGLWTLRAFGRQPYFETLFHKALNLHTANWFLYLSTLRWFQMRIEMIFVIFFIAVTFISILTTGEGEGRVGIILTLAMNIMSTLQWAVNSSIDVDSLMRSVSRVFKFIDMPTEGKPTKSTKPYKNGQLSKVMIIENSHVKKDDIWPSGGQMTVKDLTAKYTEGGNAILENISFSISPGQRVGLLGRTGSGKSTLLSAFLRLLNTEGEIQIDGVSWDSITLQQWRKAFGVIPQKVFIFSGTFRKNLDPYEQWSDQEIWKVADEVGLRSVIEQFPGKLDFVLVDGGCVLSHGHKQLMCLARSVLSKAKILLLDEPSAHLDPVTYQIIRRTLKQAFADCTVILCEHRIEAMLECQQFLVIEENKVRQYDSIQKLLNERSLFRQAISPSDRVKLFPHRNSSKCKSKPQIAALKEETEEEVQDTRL
- Protocol Summary: CFTR cell surface levels using HRP-tagged ΔF508-CFTR expressing CFBE cells, intrinsic corrector capacity
- Format: cell-based
- Measurement Parameters: HRP-tagged ΔF508-CFTR CFBE41o- cells, compounds alone (intrinsic corrector capacity), 20 hours at 33° C.; read-out: EC50
Rule: measured EC50 below 2000 nM gets Yes; anything equal to or greater than 2000 nM gets No.

Consider the worked cases shown below.
>  <Compound String>
CC(C)c1nn(-c2cccc(N(C)C)c2)c2nc(C(=O)O)cc(-c3ccc(N(C)C4CCOCC4)cc3)c12

>  <Qualitative Label>
Yes

$$$$
>  <Compound String>
O=C(O)c1cc(-c2ccc(N3CCOCC3)cc2)c2c(C3CCC3)nn(-c3ccc(F)c(F)c3)c2n1

>  <Qualitative Label>
Yes

$$$$
>  <Compound String>
Cc1nn(-c2ccccc2)c2nc(C(=O)O)cc(N3CCN(C(=O)N4CCOCC4)CC3)c12

>  <Qualitative Label>
No

$$$$

Q: Consider CC(C)c1nn(-c2cccc(F)c2)c2nc(C(=O)O)cc(-c3ccc(N4CCOCC4)cc3)c12 . Does its EC50 lie strictly below 2000 nM?
Result: Yes

====

- Assay System: ΔF508-CFTR (Homo sapiens, UniProt P13569, DEL508-508)
- Construct: host or cells: CFBE41o-, doxycycline-inducible
- Protocol Summary: CFTR cell surface levels using HRP-tagged ΔF508-CFTR expressing CFBE cells, in the presence of a co-corrector
- Format: cell-based
- Measurement Parameters: HRP-tagged ΔF508-CFTR expressing CFBE cells, in the presence of 3 μM co-corrector
Returns one of 1.0 or 0.0; 1.0 when % Activation is >= 300%.

>  <Compound String>
N#CC1CCN(c2ccc(-c3cc(C(=O)O)nc4c3c(C3CC(F)(F)C3)nn4-c3ccccc3)cn2)CC1

>  <Qualitative Label>
1.0

$$$$
>  <Compound String>
CCN1CCCN(c2cc(C(=O)O)nc3c2c(C(C)C)nn3-c2ccc(F)cc2)CC1

>  <Qualitative Label>
0.0

$$$$
>  <Compound String>
O=C1CC[C@H](COc2cc(C(=O)O)nc3c2c(C2CCC2)nn3-c2ccccc2)N1

>  <Qualitative Label>
0.0

$$$$
>  <Compound String>
CC(C)c1nn(-c2ccc(F)cc2)c2nc(C(=O)O)cc(N3CC(N4CCC(N5CCOCC5)CC4)C3)c12

>  <Qualitative Label>
0.0

$$$$

Q: Please indicate if the recorded % Activation for CC(C)c1nn(-c2cccc(N3CCOCC3)c2)c2nc(C(=O)O)cc(-c3cnc(N4CCC(C#N)CC4)nc3)c12 meets or exceeds 300%.
Result: 1.0

====

- Assay System: ΔF508-CFTR (Homo sapiens, UniProt P13569, DEL508-508)
- Construct: host or cells: CFBE41o-, doxycycline-inducible
- Protocol Summary: CFTR cell surface levels using HRP-tagged ΔF508-CFTR expressing CFBE cells, intrinsic corrector capacity
- Type: cell-based
- Measurement Parameters: HRP-tagged ΔF508-CFTR CFBE41o- cells, compounds alone (intrinsic corrector capacity), 20 hours at 33° C.; positive control 3 μM corrector
- Text: Measuring CFTR Cell Surface Levels Using HRP-Tagged AF508-CFTR Expressing CFBE Cells The HRP-tagged AF508-CFTR cell assay measures the expression of CFTR-ΔF508 at the plasma membrane. […] When HRP-tagged AF508-CFTR is present at the plasma membrane, the HRP enzyme activity can be measured. The amount of CFTR-ΔF508 that can be rescued to the plasma membrane is correlated with the amount of functional enzyme that can be measured. […]
Measured Parameter: % Activation

>  <Compound>
CC(C)c1nn(C2CCCN(CC(F)(F)F)C2)c2nc(C(=O)O)cc(-c3ccc(N4CCOCC4)cc3)c12 (stereo not shown)

>  <Assay System>
ΔF508-CFTR (Homo sapiens, UniProt P13569, DEL508-508)

>  <% Activation>
111.83%

$$$$
>  <Compound>
CN(c1ncc(-c2cc(C(=O)O)nc3c2c(C2CCC2)nn3-c2cccc(N3CCCC3)c2)cn1)C1CCOCC1

>  <Assay System>
ΔF508-CFTR (Homo sapiens, UniProt P13569, DEL508-508)

>  <% Activation>
356.47%

$$$$
>  <Compound>
CC(C)c1nn(C2CCCCC2)c2nc(C(=O)O)cc(-c3ccc(N(C)C4CCOCC4)nc3)c12

>  <Assay System>
ΔF508-CFTR (Homo sapiens, UniProt P13569, DEL508-508)

>  <% Activation>
217.88%

$$$$
>  <Compound>
COc1ccc(-n2nc(C)c3c(-c4ccc(N5CCOCC5)cc4)cc(C(=O)O)nc32)cn1

>  <Assay System>
ΔF508-CFTR (Homo sapiens, UniProt P13569, DEL508-508)

>  <% Activation>
96.05%

$$$$
>  <Compound>
Cc1nn(-c2ccccc2)c2nc(C(=O)O)cc(OCC3(F)CCCN(C4COC4)C3)c12 (stereo not shown)

>  <Assay System>
ΔF508-CFTR (Homo sapiens, UniProt P13569, DEL508-508)

>  <% Activation>
17.695%

$$$$
>  <Compound>
Cc1nn(-c2ccccc2)c2nc(C(=O)O)cc(-c3ccc(N4CC(O)C4)cc3)c12

>  <Assay System>
ΔF508-CFTR (Homo sapiens, UniProt P13569, DEL508-508)

>  <% Activation>
190.5%

$$$$

As a next step, examine the compound that follows.
Q: What does the data say about its % Activation? Entry: Cc1cccc(-n2nc(C(C)C)c3c(N4CCC(S(C)(=O)=O)C4)cc(C(=O)O)nc32)c1 (stereo not shown)
Result: 135.5%
